Target Entity: HIV-1 NefNL4-3 (Human immunodeficiency virus type 1 group M subtype B, UniProt P03406, A33V/T15A/T51N/V11I)
Experimental Protocol: Surface plasmon resonance binding to recombinant full-length Nef (NL4-3)
Assay Setup: Nef NL4-3 Binding, SPR 2-state fitting KD, Table 1; 2-step induced-fit model
pKd: −log10 of the molar value.
Label criterion met when pKd is at or above 6; otherwise label criterion not met.

Chemical Smiles	Label
Oc1c(CCc2ccc(F)cc2)c(C2CCOCC2)nn1-c1nc2ccccc2[nH]1	criterion not met
Oc1c(CCc2ccc(F)cc2)c(-c2cncc(Br)c2)nn1-c1nc2ccccc2[nH]1	criterion met
Oc1c(CCN2CCOCC2)c(-c2ccc(C(F)(F)F)cc2)nn1-c1nc2ccccc2[nH]1	criterion not met
Oc1c(CCC2CCOCC2)c(-c2cccc(F)c2)nn1-c1nc2cccnc2[nH]1	criterion not met
Nc1ccc(S(=O)(=O)N2CCC(c3nn(-c4nc5ccccc5[nH]4)c(O)c3CCc3ccc(F)cc3)CC2)cc1	criterion met
Oc1c(CCc2ccc(F)cc2)c(-c2cccc(F)c2)nn1-c1nc2ccccc2[nH]1	criterion met
